Data credit: patent US20120172295A1

Target: GLP-1 receptor (UniProt P43220 24-463, limits assumed)
Assay: cell-based or functional assay
Starred links: 1 amine or outer side, 2 acyl side, 3 side chain; linkers in the order of their positions; H or OH if unused. Non-standard residues stand in square brackets, D forms with d. Groups on a side chain read outwards from the residue. No end group written: not given here. *: point of attachment. γGlu = O=C(O)[C@H](CCC(=O)[*:2])N[*:1]; Palmitoyl = CCCCCCCCCCCCCCCC(=O)*; Myristoyl = CCCCCCCCCCCCCC(=O)*; Aib = CC(C)(N)C(=O)O
endpointName: EC50 (pM)
All answers are understood in pM, so give the number only.

Reference set (2 entries):
INSERT INTO measurements (binder, numericvalue) VALUES
  ('H[Aib]QGTFTSDK([Pro-Pro-Palmitoyl])SKYLD[Aib]RRAQDFVQWLMNT-NH2 [Peptide 87 (SEQ ID NO: 569)]', 9),
  ('H[Aib]QGTFTSDK([γGlu-γGlu-Myristoyl])SKYLD[Aib]RRAQDFVC(PEG 40 kDa)WLMNT-NH2 [Peptide 78* (SEQ ID NO: 571)]', 103);

Please examine the following record next.
Ask: Record request: EC50 value, item H[Aib]QGTFTSDK([Leu-Leu-Palmitoyl])SKYLD[Aib]RRAQDFVQWLMNT-NH2 [Peptide 86 (SEQ ID NO: 568)]
Reply: 6
